Sourced from patent US20230183237A1

- Assay System: hM5 (Homo sapiens, UniProt P08912)
- Construct: expressed in transfected cells
- Sequence (P08912 1-532): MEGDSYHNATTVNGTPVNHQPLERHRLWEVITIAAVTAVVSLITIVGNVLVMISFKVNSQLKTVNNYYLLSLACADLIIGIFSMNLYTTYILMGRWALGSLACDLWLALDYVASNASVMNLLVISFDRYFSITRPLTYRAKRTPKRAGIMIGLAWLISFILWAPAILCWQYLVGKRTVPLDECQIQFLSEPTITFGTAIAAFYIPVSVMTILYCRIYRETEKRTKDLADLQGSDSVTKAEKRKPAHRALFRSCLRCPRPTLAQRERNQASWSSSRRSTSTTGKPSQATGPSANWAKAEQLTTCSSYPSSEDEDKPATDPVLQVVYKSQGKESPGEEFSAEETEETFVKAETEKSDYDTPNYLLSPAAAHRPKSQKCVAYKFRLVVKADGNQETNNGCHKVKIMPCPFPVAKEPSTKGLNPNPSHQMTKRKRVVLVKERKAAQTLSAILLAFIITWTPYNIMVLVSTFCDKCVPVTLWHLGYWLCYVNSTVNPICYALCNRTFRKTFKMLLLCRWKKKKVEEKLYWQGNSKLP
- Assay Protocol: Calcium mobilization concentration-response (IC50 vs EC80 acetylcholine), CHO hM5
- Type: cell-based
- Experimental Context: CELL LINE hM5; vs EC80 acetylcholine; read-out: IC50
Mark Satisfied only when IC50 stays strictly below 400 nM. Values equal to the cut-off are Not satisfied.

{"Compound": "Cn1ncc(S(=O)(=O)N2CCC(c3cn4ncnc4cc3C(F)F)CC2)c1C#N [Compound 482]", "Assay System": "hM5 (Homo sapiens, UniProt P08912)", "Class Label": "Satisfied"}
{"Compound": "Cc1cc2ncnn2cc1C1CCN(S(=O)(=O)c2cnn(C)c2CN)CC1 [Compound 529]", "Assay System": "hM5 (Homo sapiens, UniProt P08912)", "Class Label": "Satisfied"}
{"Compound": "Cc1cc(S(=O)(=O)N2CCC(c3cn4ncnc4cc3CCl)CC2)sn1 [Compound 606]", "Assay System": "hM5 (Homo sapiens, UniProt P08912)", "Class Label": "Satisfied"}
{"Compound": "Cc1cc2ncnn2nc1C1CCN(S(=O)(=O)c2cnn3ccccc23)CC1 [Compound 546]", "Assay System": "hM5 (Homo sapiens, UniProt P08912)", "Class Label": "Not satisfied"}
{"Compound": "CO[C@H]1CN(S(=O)(=O)c2cnn(C)c2Cl)CC[C@@H]1c1cn2ncnc2cc1C (single isomer, unassigned) [Compound 460]", "Assay System": "hM5 (Homo sapiens, UniProt P08912)", "Class Label": "Not satisfied"}
{"Compound": "CCc1cc2ncnn2cc1C1CCN(S(=O)(=O)c2cnn(C)c2OC)CC1 [Compound 584]", "Assay System": "hM5 (Homo sapiens, UniProt P08912)", "Class Label": "Satisfied"}
{"Compound": "Cc1cc2ncccc2cc1C1CCN(S(=O)(=O)c2cnc3n2CCCC3)CC1 [Compound 450]", "Assay System": "hM5 (Homo sapiens, UniProt P08912)", "Class Label": "Satisfied"}

Consider the additional compound presented here.
Inquiry: I'd appreciate it if you could check whether O=S(=O)(c1cnn2cccnc12)N1CCC(c2cn3ncnc3cc2F)CC1 [Compound 443] has IC50 smaller than 400 nM.
Reply text: Not satisfied
